# assayText: Solubility
# Format: physicochemical
# experimentalParameters: ethanol, organic solvent or mixture; read-out: solubility in ethanol
metric: solubility

Prompt line: So what does the record say about solubility for C=CC(=O)Nc1cccc(Nc2nc(Nc3ccc(OCCOC)cc3)ncc2F)c1 [Compound 1 besylate] ?
Response line: ~10 mg/mL

----------
# systemName: Lyn (Homo sapiens, UniProt P07948)
# Sequence (P07948 whole entry): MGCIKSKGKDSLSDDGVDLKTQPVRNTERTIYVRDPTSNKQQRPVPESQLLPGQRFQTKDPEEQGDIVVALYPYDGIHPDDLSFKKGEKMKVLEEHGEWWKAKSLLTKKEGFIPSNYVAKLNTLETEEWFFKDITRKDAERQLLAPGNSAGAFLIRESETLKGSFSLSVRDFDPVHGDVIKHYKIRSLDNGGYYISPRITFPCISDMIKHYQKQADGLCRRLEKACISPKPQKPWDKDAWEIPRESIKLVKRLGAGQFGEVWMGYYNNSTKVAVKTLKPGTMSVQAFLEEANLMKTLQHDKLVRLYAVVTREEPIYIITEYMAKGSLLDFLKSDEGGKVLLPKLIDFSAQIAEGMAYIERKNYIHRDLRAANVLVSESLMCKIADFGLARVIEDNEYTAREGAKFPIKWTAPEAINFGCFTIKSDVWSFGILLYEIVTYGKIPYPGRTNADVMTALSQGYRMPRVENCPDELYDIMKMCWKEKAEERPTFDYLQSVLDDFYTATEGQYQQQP
pIC50: −log10 of the molar value.
metric: pIC50

Prompt line: What value of pIC50 has been reported for the following compound? C=CC(=O)Nc1cccc(Nc2nc(Nc3cccc(OCCCNC(=O)CCCC(=O)NCCCOCCOCCOCCCNC(=O)CCCC[C@@H]4SC[C@@H]5NC(=O)N[C@@H]54)c3)ncc2C)c1
Response line: < 5.46
